Entries and their Regrowth, OD600 at 6h or 8h after dilution into drug-free medium (average) values follow.
Test system: non-growing UPEC CFT073
Assay: Dilution-regrowth assay (screen, hit validation, dose-response) on stationary-phase UPEC
Format: cell-based, Escherichia coli
Conditions: E. coli in 1:4 CA-MHB (pH 7.4); drug concentration 10
Please reply with the value in numeric form only.

> print(dat)
                                   molecule  recorded.result
1  CO[C@@]12[C@H](COC(N)=O)C3=C(C(=O)C(C)=C(N)C3=O)N1C[C@@H]1N[C@@H]12            0.065

Any idea what Regrowth, OD600 at 6h or 8h after dilution into drug-free medium (average) was measured for [H]/N=C(\N/C(=N/[H])NCCCCCCNC(=N)NC(=N)Nc1ccc(Cl)cc1)Nc1ccc(Cl)cc1 ? 0.585

Any idea what Regrowth, OD600 at 6h or 8h after dilution into drug-free medium (average) was measured for CCCCC(CC)CNC(=N)NC(=N)NCCCCCCNC(=N)NC(=N)NCC(CC)CCCC (centres unmarked) ? 0.568

Any idea what Regrowth, OD600 at 6h or 8h after dilution into drug-free medium (average) was measured for CCCCCCCCN=c1ccn(CCCCCCCCCCn2ccc(=NCCCCCCCC)cc2)cc1 ? 0.188

Any idea what Regrowth, OD600 at 6h or 8h after dilution into drug-free medium (average) was measured for CC(=O)[O][Pt]([NH2])([Cl])([Cl])([NH]C1CCCCC1)[O]C(C)=O ? 0.597
